- Assay System: LNX1_1, Q8TBB1
- Sequence (Q8TBB1 261-371): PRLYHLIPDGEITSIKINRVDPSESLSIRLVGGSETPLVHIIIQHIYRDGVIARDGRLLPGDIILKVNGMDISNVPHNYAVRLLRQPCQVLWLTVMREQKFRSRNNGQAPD
- Test Summary: holdup assay
- Set-up: key: below the threshold = too weak to quantify, mostly under pKd 3.1 to 4
- Reported Conditions: plain residues with an end cap or a label only (N-terminal biotin on a linker: ttds)
Metric: pKd

>>> df
                          binder  metric               result
0  DPRNTQTSQI [ABRAXAS2, Q15018]     pKd  below the threshold
1       VNKVWDQSSV [CIT, O14578]     pKd  below the threshold
2  RTRQRNETQV [HPV51-E6, P26554]     pKd  below the threshold

These data points were gathered from paper PMC9482650.
